tested on: Patu8988S; assay: In vitro cytotoxicity (cell proliferation inhibition), SRB dye or Cell titer glo; type: cell-based, human; conditions: 144 hours
Square brackets hold non-standard residues; d marks the D form. Peptide text beside a SMILES is read from it. * marks the point of attachment. Dolaproine = CO[C@@H]([C@@H]1CCCN1)[C@@H](C)C(=O)O; Dil = CC[C@H](C)[C@H](NC)[C@@H](CC(=O)O)OC; X1 = C[C@@H](N*)[C@@H](O)c1ccccc1; NMeV = CN[C@H](C(=O)O)C(C)C
Readout: CC50 (nM)

INSERT INTO measurements (molecule, readout, quantitative_readout) VALUES
  ('CC[C@H](C)[C@@H]([C@@H](CC(=O)N1CCC[C@H]1[C@H](OC)[C@@H](C)C(=O)N[C@H](C)[C@@H](O)c1ccccc1)OC)N(C)C(=O)[C@@H](NC(=O)[C@@H](NC)C(C)C)C(C)C [MMAE, monomethyl auristatin E] (H-[NMeV]V[Dil][Dolaproine]-X1)', 'CC50', 0.334);

Origin of the recorded values: patent US20250242043A1
